Recorded OX2R agonist activity (3 uM, %) by entry
Target: human OX2 receptor (Homo sapiens, UniProt O43614)
Construct: expressed in transfected cells
Sequence (O43614 1-444): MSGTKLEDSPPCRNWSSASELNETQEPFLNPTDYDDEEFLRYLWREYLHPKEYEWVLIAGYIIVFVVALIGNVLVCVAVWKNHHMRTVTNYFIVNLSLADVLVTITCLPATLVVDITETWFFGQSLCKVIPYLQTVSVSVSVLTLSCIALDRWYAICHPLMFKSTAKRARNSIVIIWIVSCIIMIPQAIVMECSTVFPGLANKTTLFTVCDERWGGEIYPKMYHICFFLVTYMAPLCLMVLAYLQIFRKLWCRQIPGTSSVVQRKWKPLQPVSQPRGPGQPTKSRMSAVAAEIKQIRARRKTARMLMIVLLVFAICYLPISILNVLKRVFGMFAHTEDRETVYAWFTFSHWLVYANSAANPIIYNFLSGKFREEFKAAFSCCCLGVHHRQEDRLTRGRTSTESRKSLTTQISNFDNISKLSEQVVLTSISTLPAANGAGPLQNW
Experiment: Measurement of orexin type 2 receptor agonist activity (calcium fluorescence, Fluo-4, FDSS)
Type: cell-based
Details: 3 uM test compound; CHO cells expressing human OX2 receptor; DMSO = 0%, 10 nM orexin A (human) = 100%

{"compound": "CCS(=O)(=O)NC1Cn2c(cn(-c3noc4ccc(F)c(-c5c(F)cc(F)cc5F)c34)c2=O)CC1(F)F (single isomer, unassigned)", "OX2R agonist activity (3 uM, %)": "107%"}
{"compound": "O=C1N(c2noc3cc(F)cc(-c4c(F)cccc4F)c23)CC[C@H]2N1C[C@@H](NS(=O)(=O)C1CC1)C2(F)F", "OX2R agonist activity (3 uM, %)": "107%"}
{"compound": "CCS(=O)(=O)N[C@@H]1CN2C(=O)N(c3noc4cc(C)nc(-c5c(F)cc(F)cc5F)c34)CC[C@@H]2C1(F)F", "OX2R agonist activity (3 uM, %)": "112%"}
{"compound": "CCOc1cc(-c2c(F)cccc2F)c2c(N3CC[C@H]4N(C[C@@H](NS(=O)(=O)CC)C4(F)F)C3=O)noc2c1", "OX2R agonist activity (3 uM, %)": "104%"}
{"compound": "COc1cc(-c2c(F)cc(F)cc2F)c2c(-n3cc4n(c3=O)C[C@@H](NS(C)(=O)=O)C4(F)F)noc2n1", "OX2R agonist activity (3 uM, %)": "99%"}

====

tested on: cynomolgus monkeys; experiment: Evaluation of wake-promoting effects in cynomolgus monkeys (EEG, EMG, locomotor activity); format: in vivo, cynomolgus monkey; details: Macaca fascicularis, po; 1 mg/kg, p.o., at zeitgeber time 12; 4 hours after administration; male cynomolgus monkeys; read-out: Wakefulness time (% of vehicle treatment) (Mean, n = 2-4)

{"compound": "CCS(=O)(=O)N[C@@H]1CN2C(=O)N(c3noc4cccc(-c5c(F)cc(F)cc5F)c34)C[C@@H]2C1(F)F [Example 24]", "unitAbbrev": "%", "response vs control in vivo at 1 mg/kg": 393}
{"compound": "CCS(=O)(=O)N[C@@H]1Cn2c(cn(-c3noc4cc(F)cc(-c5c(F)cccc5F)c34)c2=O)C1(F)F [Example 282]", "unitAbbrev": "%", "response vs control in vivo at 1 mg/kg": 418}
{"compound": "CS(=O)(=O)N[C@@H]1CN2C(=O)N(c3noc4cc(F)cc(-c5c(F)cc(F)cc5F)c34)C[C@@H]2C1(F)F [Example 149]", "unitAbbrev": "%", "response vs control in vivo at 1 mg/kg": 731}
{"compound": "CS(=O)(=O)N[C@@H]1Cn2c(cn(-c3noc4cccc(-c5c(F)cc(F)cc5F)c34)c2=O)C1(F)F [Example 16]", "unitAbbrev": "%", "response vs control in vivo at 1 mg/kg": 546}

====

molecular target: human OX2 receptor (Homo sapiens); construct: expressed in transfected cells; assay: Measurement of orexin type 2 receptor agonist activity (calcium fluorescence, Fluo-4, FDSS); format: cell-based; conditions: 3 uM test compound; CHO cells expressing human OX2 receptor; DMSO = 0%, 10 nM orexin A (human) = 100%
Readings of OX2R agonist activity (3 uM, %) for the listed compounds

{"compound": "CS(=O)(=O)N[C@@H]1CN2C(=O)N(c3noc4cc(Cl)cc(-c5c(F)cccc5F)c34)CC[C@@H]2C1(F)F [Example 259]", "unitAbbrev": "%", "OX2R agonist activity (3 uM, %)": 96}
{"compound": "CS(=O)(=O)N[C@@H]1CN2C(=O)N(c3noc4cccc(-c5cccc(F)c5F)c34)CC[C@@H]2C1(F)F [Example 276]", "unitAbbrev": "%", "OX2R agonist activity (3 uM, %)": 100}
{"compound": "CS(=O)(=O)N[C@@H]1CN2C(=O)N(c3noc4cc(Cl)cc(-c5c(F)cc(F)cc5F)c34)C[C@@H]2C1(F)F [Example 25]", "unitAbbrev": "%", "OX2R agonist activity (3 uM, %)": 96}
{"compound": "CS(=O)(=O)N[C@@H]1Cn2c(cn(-c3noc4cc(C(F)(F)F)cc(-c5c(F)cc(F)cc5F)c34)c2=O)C1(F)F [Example 130]", "unitAbbrev": "%", "OX2R agonist activity (3 uM, %)": 99}
{"compound": "CN(C)S(=O)(=O)N[C@@H]1Cn2c(cn(-c3noc4ccc(F)c(-c5c(F)cc(F)cc5F)c34)c2=O)C1(F)F [Example 264]", "unitAbbrev": "%", "OX2R agonist activity (3 uM, %)": 107}

====

Target: human OX2 receptor (Homo sapiens, UniProt O43614)
Construct: expressed in transfected cells
Sequence (O43614 1-444): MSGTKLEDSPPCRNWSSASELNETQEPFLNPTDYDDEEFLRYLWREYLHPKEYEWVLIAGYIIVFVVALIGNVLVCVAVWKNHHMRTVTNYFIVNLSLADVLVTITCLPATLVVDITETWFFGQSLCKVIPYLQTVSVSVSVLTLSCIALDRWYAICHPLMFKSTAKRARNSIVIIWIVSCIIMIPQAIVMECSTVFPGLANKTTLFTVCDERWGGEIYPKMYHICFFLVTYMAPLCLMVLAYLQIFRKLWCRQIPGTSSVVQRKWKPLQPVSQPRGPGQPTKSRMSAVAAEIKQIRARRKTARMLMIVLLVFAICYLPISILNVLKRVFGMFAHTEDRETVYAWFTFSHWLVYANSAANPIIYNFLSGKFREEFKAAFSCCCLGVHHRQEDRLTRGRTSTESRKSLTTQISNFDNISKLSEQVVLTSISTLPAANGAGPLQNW
Assay: Measurement of orexin type 2 receptor agonist activity (calcium fluorescence, Fluo-4, FDSS)
Type: cell-based
Settings: 3 uM test compound; CHO cells expressing human OX2 receptor; DMSO = 0%, 10 nM orexin A (human) = 100%
Overview of recorded OX2R agonist activity (3 uM, %) for various compounds

{"chemicalString": "CCS(=O)(=O)N[C@@H]1CN2C(=O)N(c3noc4cc(Cl)c(F)c(-c5c(F)cccc5F)c34)C[C@@H]2C1(F)F", "OX2R agonist activity (3 uM, %)": 99}
{"chemicalString": "O=C1N(c2noc3cccc(-c4c(F)cccc4F)c23)CC[C@H]2N1C[C@@H](NS(=O)(=O)CF)C2(F)F", "OX2R agonist activity (3 uM, %)": 109}
{"chemicalString": "O=c1n(-c2noc3ccc(F)c(-c4c(F)cc(F)cc4F)c23)cc2n1C[C@@H](NS(=O)(=O)C1CC1)C2(F)F", "OX2R agonist activity (3 uM, %)": 109}
{"chemicalString": "Cc1cc2onc(-n3cc4n(c3=O)C[C@@H](NS(C)(=O)=O)C4(F)F)c2c(-c2c(F)cccc2F)n1", "OX2R agonist activity (3 uM, %)": 106}
{"chemicalString": "CNS(=O)(=O)N[C@@H]1Cn2c(cn(-c3noc4cc(C)nc(-c5c(F)cc(F)cc5F)c34)c2=O)C1(F)F", "OX2R agonist activity (3 uM, %)": 110}
{"chemicalString": "CCOc1cc(-c2c(F)cccc2F)c2c(N3CC[C@H]4N(C[C@@H](NS(=O)(=O)C5CC5)C4(F)F)C3=O)noc2c1", "OX2R agonist activity (3 uM, %)": 105}
{"chemicalString": "CCS(=O)(=O)N[C@@H]1CN2C(=O)N(c3noc4cc(F)c(F)c(-c5c(F)cc(F)cc5F)c34)CC[C@@H]2C1(F)F", "OX2R agonist activity (3 uM, %)": 117}
{"chemicalString": "CCS(=O)(=O)N[C@@H]1Cn2c(cn(-c3noc4nc(C5CC5)cc(-c5c(F)cccc5F)c34)c2=O)C1(F)F", "OX2R agonist activity (3 uM, %)": 108}
{"chemicalString": "Cc1cc(-c2c(F)cccc2F)c2c(N3CC[C@H]4N(C[C@@H](NS(C)(=O)=O)C4(F)F)C3=O)noc2c1", "OX2R agonist activity (3 uM, %)": 96}
{"chemicalString": "CCOc1cc(-c2c(F)cc(F)cc2F)c2c(N3C[C@H]4N(C[C@@H](NS(C)(=O)=O)C4(F)F)C3=O)noc2c1", "OX2R agonist activity (3 uM, %)": 99}
{"chemicalString": "CCS(=O)(=O)N[C@@H]1Cn2c(cn(-c3noc4cc(F)cc(-c5c(F)cc(F)cc5F)c34)c2=O)C1(F)F", "OX2R agonist activity (3 uM, %)": 93}
{"chemicalString": "CNS(=O)(=O)N[C@@H]1Cn2c(cn(-c3noc4cc(C)nc(-c5c(F)cccc5F)c34)c2=O)C1(F)F", "OX2R agonist activity (3 uM, %)": 103}
{"chemicalString": "CCS(=O)(=O)N[C@@H]1CN2C(=O)N(c3noc4cccc(-c5ncc(F)cc5C)c34)CC[C@@H]2C1(F)F", "OX2R agonist activity (3 uM, %)": 101}

Origin of values: patent US11987586B1
